assay info: Pharmacokinetic experiment on SD rats (iv and intragastric)
Assay type: in vivo
condition set: Sprague-Dawley, rat, plasma, iv, 1.00 mg/kg, read-out: Peak plasma concentration Cmax
Description: Pharmacokinetic experiment on SD rats: in this experiment, two administration modes: oral intragastric administration and tail vein injection were selected. Oral administration was performed at a dose of 5 mg/kg using the compounds of the present disclosure. The administration volume was 10 mL/kg. Prior to use, an appropriate amount of the drug was accurately weighed and first dissolved in dimethyl sulfoxide (DMSO). […]
Could you mark each record label 1 if its Cmax falls strictly under 800 ng/mL, and label 0 if it equals or exceeds it?

compound="CN(C)c1cc2nn([C@H]3CC[C@H](CN4C[C@@H](F)[C@H](n5cc6cc(C7CCC(=O)NC7=O)c(F)cc6n5)C4)CC3)cc2cc1NC(=O)c1cnn2cccnc12 (stereo partly shown) [TM-245]" class_assignment="label 1"
compound="CN(C)c1cc2nn([C@H]3CC[C@H](CN4C[C@@H](n5cc6cc(C7CCC(=O)NC7=O)c(F)cc6n5)[C@@H](F)C4)CC3)cc2cc1NC(=O)c1cnn2cccnc12 (stereo partly shown) [TM-241]" class_assignment="label 0"
compound="CN(C)c1cc2nn([C@H]3CC[C@H](CN4C[C@@H](F)[C@@H](n5cc6cc(C7CCC(=O)NC7=O)c(F)cc6n5)C4)CC3)cc2cc1NC(=O)c1cnn2cccnc12 (stereo partly shown) [TM-240]" class_assignment="label 1"
compound="CN(C)c1cc2nn([C@H]3CC[C@H](CN4C[C@H](F)[C@@H](n5cc6cc(C7CCC(=O)NC7=O)c(F)cc6n5)C4)CC3)cc2cc1NC(=O)c1cnn2cccnc12 (stereo partly shown) [TM-249]" class_assignment="label 1"
compound="CN(C)c1cc2nn([C@H]3CC[C@H](CN4CCC(n5cc6c(F)cc(N7CCC(=O)NC7=O)cc6n5)CC4)CC3)cc2cc1NC(=O)c1cnn2cccnc12 [TM-174]" class_assignment="label 1"
